testedTarget: histamine H1 receptor (Bos taurus, UniProt P30546)
Construct: suspension of bovine cerebellum; from tissue; host or cells: bovine cerebellum
Sequence (P30546 whole entry): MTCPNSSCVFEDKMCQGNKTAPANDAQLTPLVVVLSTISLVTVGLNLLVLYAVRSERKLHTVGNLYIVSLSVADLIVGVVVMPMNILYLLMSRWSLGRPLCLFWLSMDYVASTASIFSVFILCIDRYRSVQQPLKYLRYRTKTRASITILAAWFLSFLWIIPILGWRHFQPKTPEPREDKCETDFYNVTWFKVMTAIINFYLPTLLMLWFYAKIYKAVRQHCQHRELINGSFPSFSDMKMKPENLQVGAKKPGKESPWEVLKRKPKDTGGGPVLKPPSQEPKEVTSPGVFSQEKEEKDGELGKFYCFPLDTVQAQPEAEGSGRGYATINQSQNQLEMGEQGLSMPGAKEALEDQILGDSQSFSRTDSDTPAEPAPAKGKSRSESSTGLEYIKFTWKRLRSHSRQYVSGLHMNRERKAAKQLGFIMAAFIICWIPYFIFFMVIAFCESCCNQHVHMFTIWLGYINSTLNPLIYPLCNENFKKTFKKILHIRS
testProtocol: Binding test employing 3H-pyrilamine (histamine H1 receptor-binding test)
measurementSetup: 0.5 h, 10 μM, bovine cerebellum, pH 7.5, 25° C., 30 minutes, read-out: Inhibition ratio against H1-receptor
Method: Tritiated pyrilamine was added to a suspension of bovine cerebellum and a 50 mM phosphate buffer solution (pH 7.5), and the mixture was left to stand still at 25° C. for 30 minutes. Then, the mixture was rapidly filtered under suction through a glass fiber filter paper, and the radio activities on the filter paper were measured.

compound: CCn1ncc(NCc2ccc(OC)c(OCCN3CCN(Cc4ccc(F)cc4)CC3)c2)c(Cl)c1=O
inhibition at 10 µM [%]: 55.8

compound: COc1ccc(CNc2c(Cl)n[nH]c(=O)c2Cl)cc1OCCCN1CCN(Cc2ccccc2)CC1
inhibition at 10 µM [%]: 94.4

compound: COc1ccc(CNc2c([N+](=O)[O-])n[nH]c(=O)c2Cl)cc1OCCCN1CCN(Cc2ccccc2)CC1
inhibition at 10 µM [%]: 89.2

compound: COc1ccc(CNc2cn[nH]c(=O)c2Br)cc1OCCCN1CCN(Cc2ccccc2)CC1
inhibition at 10 µM [%]: 86.6

compound: COc1ccc(CNc2cn[nH]c(=O)c2Cl)cc1OCCCN1CCN(Cc2ccc(F)cc2)CC1
inhibition at 10 µM [%]: 92.6

compound: COc1ccc(CNc2cn[nH]c(=O)c2Cl)cc1OCCCN1CCN(Cc2ccccc2)CC1
inhibition at 10 µM [%]: 92.2

compound: COc1ccc(CNc2c([N+](=O)[O-])n[nH]c(=O)c2Cl)cc1OCCCN1CCN(Cc2ccc(Cl)cc2)CC1
inhibition at 10 µM [%]: 93.6

compound: COc1ccc(CNc2cn[nH]c(=O)c2Br)cc1OCCN1CCN(Cc2ccc(Cl)cc2)CC1.O=C(O)/C=C/C(=O)O [Compound 8, fumarate]
inhibition at 10 µM [%]: 56.5

compound: COc1ccc(CNc2c(Cl)n[nH]c(=O)c2Cl)cc1OCCCN1CCN(Cc2ccc(Cl)cc2)CC1
inhibition at 10 µM [%]: 90.5

The reported numbers originate from patent US5929074A.
